Biological target: TBK1 (Homo sapiens, UniProt Q9UHD2)
Sequence (Q9UHD2 whole entry, species assumed): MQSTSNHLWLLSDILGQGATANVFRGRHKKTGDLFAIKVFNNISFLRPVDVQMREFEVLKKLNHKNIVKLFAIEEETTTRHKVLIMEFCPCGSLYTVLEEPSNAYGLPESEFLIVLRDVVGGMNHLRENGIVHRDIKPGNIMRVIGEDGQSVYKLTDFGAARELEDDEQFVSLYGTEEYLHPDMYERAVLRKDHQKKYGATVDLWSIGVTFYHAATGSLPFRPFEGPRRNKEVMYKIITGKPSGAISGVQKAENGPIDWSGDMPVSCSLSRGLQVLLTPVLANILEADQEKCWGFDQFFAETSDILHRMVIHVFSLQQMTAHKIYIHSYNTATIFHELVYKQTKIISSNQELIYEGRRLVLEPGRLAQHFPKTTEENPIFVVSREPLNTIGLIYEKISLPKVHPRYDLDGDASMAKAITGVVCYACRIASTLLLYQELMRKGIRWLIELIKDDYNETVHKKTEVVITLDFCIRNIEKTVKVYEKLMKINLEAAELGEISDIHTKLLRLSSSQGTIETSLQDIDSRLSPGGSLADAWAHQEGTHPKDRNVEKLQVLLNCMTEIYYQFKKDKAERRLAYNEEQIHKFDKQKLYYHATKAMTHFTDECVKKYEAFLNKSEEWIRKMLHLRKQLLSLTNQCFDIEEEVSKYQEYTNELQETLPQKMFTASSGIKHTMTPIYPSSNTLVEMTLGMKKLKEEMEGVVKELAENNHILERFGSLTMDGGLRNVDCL
Assay: TBK Biochemical Assay
Conditions: read-out: TBK1 IC50
pIC50: −log10 of the molar value. Structures can show the parent of a compound that is named as a salt.
Measured metric: pIC50

Examples from the recorded data:
Request: pIC50, test system TBK1 (Homo sapiens, UniProt Q9UHD2), entry COc1cc(C(=O)NCCC2CCNCC2)ccc1-c1cc2nccc(-c3ccc(OC4CCOCC4)c(C#N)c3)c2o1 [Compound 118, hydrochloride]
> 7.00

Would you mind doing COc1cc(C(=O)NC2(C#N)CCN(C)C2)ccc1-c1cc2nccc(-c3ccc(OC4CCOCC4)c(C#N)c3)c2o1 (stereo not shown) as well?
> 7.00

Would you mind doing C[C@@H]1COC[C@H](C)[C@H]1Oc1ccc(-c2ccnc3cc(-c4ccc(C(=O)N(C)C)cc4)oc23)cc1C#N (single isomer, unassigned) [Compound 219, hydrochloride] as well?
6.00 to 7.00

Next:
Request: pIC50, test system TBK1 (Homo sapiens, UniProt Q9UHD2), entry COc1cc(C(=O)N(C)CCO)cnc1-c1cc2ncc(OC)c(-c3ccc(OC4CCOCC4)c(C#N)c3)c2o1
6.00 to 7.00

Would you mind doing CN(C)C(=O)c1ccc(-c2cc3nccc(-c4ccc(OC5CCOCC5)c(C#N)c4)c3o2)c(F)c1 as well?
> 7.00

Would you mind doing N#Cc1cc(-c2ccnc3cc(-c4cccc(C(=O)NC5CN6CCC5CC6)c4)oc23)ccc1OC1CCOCC1 (stereo not shown) as well?
> 7.00

Would you mind doing COc1cc(C(=O)N(C)C)ccc1-c1cc2nccc(-c3ccc(NC4CC(C)(C)OC(C)(C)C4)c(C#N)c3)c2o1 as well?
6.00 to 7.00

Would you mind doing N#Cc1cc(-c2ccnc3cc(-c4ccc(C(=O)O)cc4)oc23)ccc1OC1CC(CO)(CCl)C1 (stereo not shown) as well?
6.00 to 7.00

Would you mind doing COc1cc(C(=O)N(C)C)ccc1-c1cc2nccc(-c3ccc(OCC4CCOC4)c(C#N)c3)c2o1 (stereo not shown) as well?
> 7.00

Would you mind doing N#Cc1cc(-c2ccnc3cc(-c4ccc(C(=O)O)cc4)oc23)ccc1OC1CCCOC1 (stereo not shown) as well?
6.00 to 7.00

Would you mind doing CC(C)N1CCN(C(=O)c2ccc(-c3cc4nccc(-c5ccc(OC6CCOCC6)c(C#N)c5)c4o3)cc2)CC1 as well?
> 7.00

Would you mind doing COc1cc(C(=O)N2C3CCC2COC3)ccc1-c1cc2nccc(-c3ccc(OC4CCOCC4)c(C#N)c3)c2o1 as well?
> 7.00

Would you mind doing CN(C)C(=O)c1ccc(-c2cc3nccc(-c4ccc(O)c(C#N)c4)c3o2)cc1 as well?
6.00 to 7.00

Would you mind doing COc1cc(C(=O)NC2CC(O)C2)ccc1-c1cc2nccc(-c3ccc(NC4CCOCC4)c(C#N)c3)c2o1 (stereo not shown) as well?
> 7.00

Would you mind doing CN(C)C(=O)c1ccc(-c2cc3nccc(-c4ccc(Oc5cccc(F)c5)c(C#N)c4)c3o2)cc1 as well?
6.00 to 7.00

Would you mind doing COc1cc(C(=O)NC2CC(O)C2)ccc1-c1cc2nccc(-c3ccc(OC4CCOCC4)c(C#N)c3)c2o1 (stereo not shown) as well?
> 7.00

Would you mind doing COc1cc(C(=O)N(C)CCCO)ccc1-c1cc2nccc(-c3ccc(OC4CCOCC4)c(C#N)c3)c2o1 [Compound 258, hydrochloride] as well?
> 7.00

Would you mind doing COc1cc(C(=O)N(C)C)cnc1-c1cc2nccc(-c3cnc(N4CCC(F)C4)c(C#N)c3)c2o1 (stereo not shown) as well?
> 7.00

Would you mind doing COc1nc(C(=O)N(C)C)ccc1-c1cc2nccc(-c3ccc(N4CC[C@@H](F)C4)c(C#N)c3)c2o1 as well?
> 7.00

Would you mind doing COc1cc(C(=O)NC[C@@H](O)CO)ccc1-c1cc2nccc(-c3ccc(OC4CCOCC4)c(C#N)c3)c2o1 as well?
> 7.00

Would you mind doing COc1cc(C(=O)N(C)CCO)ncc1-c1cc2nccc(-c3cc(C#N)c(OC4CCOCC4)cn3)c2o1 as well?
6.00 to 7.00

Would you mind doing COc1cc(C(=O)N2CC3CC2CO3)ccc1-c1cc2nccc(-c3ccc(NC4CCOCC4)c(C#N)c3)c2o1 (stereo not shown) as well?
> 7.00

Would you mind doing CN(C)C(=O)c1ccc(-c2cc3nccc(-c4ccc(OC5CCOCC5)c(C#N)c4)c3o2)nn1 [Compound 242, hydrochloride] as well?
6.00 to 7.00

Would you mind doing CCN(C)C(=O)c1ccc(-c2cc3nccc(-c4ccc(NC5CCOCC5)c(C#N)c4)c3o2)c(OC)c1 as well?
> 7.00

Would you mind doing COc1cc(C(=O)N(C)C2CCNCC2)ccc1-c1cc2nccc(-c3ccc(OC4CCOCC4)c(C#N)c3)c2o1 [Compound 41, hydrochloride] as well?
> 7.00

* * *

The entries below come with measured IC50 values attached.
Molecular target: UniProt:Q9UHD2
Assay: TBK Biochemical Assay
Conditions: read-out: TBK1 IC50

Examples from the recorded data:
Tell me the measured IC50 of COc1cc(C(=O)NC2CN3CCC2CC3)ccc1-c1cc2nccc(-c3ccc(OC4CCOCC4)c(C#N)c3)c2o1 (stereo not drawn) [Compound 79] , please.
< 100 nM

Would you mind doing COc1cc(C(=O)N2CC[C@H](N(C)C)C2)ccc1-c1cc2nccc(-c3ccc(N4CC[C@H](F)C4)c(C#N)c3)c2o1 [Compound 47] as well?
< 100 nM

Would you mind doing COc1cc(C(=O)N(C)C)ccc1-c1cc2nccc(-c3ccc(OC4CCN(C)CC4)c(C#N)c3)c2o1 [Compound 150] as well?
< 100 nM

Next:
Tell me the measured IC50 of COc1cc(C(=O)N2CCCC(O)C2)ccc1-c1cc2nccc(-c3ccc(OC4CCOCC4)c(C#N)c3)c2o1 (stereo not drawn) [Compound 22] , please.
< 100 nM

* * *

The entries below come with measured IC50 values attached.
Target: IKKε (Homo sapiens, UniProt Q14164)
Sequence (Q14164 1-716): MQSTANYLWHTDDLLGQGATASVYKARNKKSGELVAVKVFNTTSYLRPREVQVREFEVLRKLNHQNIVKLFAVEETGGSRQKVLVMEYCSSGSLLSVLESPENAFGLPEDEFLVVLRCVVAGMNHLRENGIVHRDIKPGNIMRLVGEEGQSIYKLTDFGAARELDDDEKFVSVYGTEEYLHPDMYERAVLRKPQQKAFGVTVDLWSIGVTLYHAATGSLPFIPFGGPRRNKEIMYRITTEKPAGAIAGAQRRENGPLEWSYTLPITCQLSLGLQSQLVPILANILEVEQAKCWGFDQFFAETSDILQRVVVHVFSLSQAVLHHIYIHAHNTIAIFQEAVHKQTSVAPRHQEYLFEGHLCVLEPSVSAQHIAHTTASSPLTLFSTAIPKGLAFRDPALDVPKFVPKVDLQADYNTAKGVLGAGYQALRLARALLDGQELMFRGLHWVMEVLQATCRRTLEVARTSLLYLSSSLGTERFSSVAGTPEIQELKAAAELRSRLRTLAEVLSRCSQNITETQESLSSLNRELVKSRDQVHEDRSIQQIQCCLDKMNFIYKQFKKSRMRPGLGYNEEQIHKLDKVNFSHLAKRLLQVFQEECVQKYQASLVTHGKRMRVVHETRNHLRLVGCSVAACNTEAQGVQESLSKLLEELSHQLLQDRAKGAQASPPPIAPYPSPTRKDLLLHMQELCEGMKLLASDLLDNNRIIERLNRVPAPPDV
Experiment: IKKe Biochemical Assay
Conditions: read-out: IKKε IC50
Where a name gives a salt, the structure may show the parent alone.

Tell me the measured IC50 of COc1cc(C(=O)N(C)C)ccc1-c1cc2ncc(Cl)c(-c3ccc(OC4CCOCC4)c(C#N)c3)c2o1 , please.
100 to 1000 nM

Would you mind doing CN(C)C(=O)c1ccc(-c2cc3nccc(-c4ccc(N5CC[C@H](F)C5)c(C#N)c4)c3o2)nc1 (single isomer, unassigned) [Compound 273, hydrochloride] as well?
< 100 nM

Would you mind doing CN(CCO)C(=O)c1ccc(-c2cc3ncc(F)c(-c4ccc(NC5CCOCC5)c(C#N)c4)c3o2)c(F)c1 as well?
100 to 1000 nM

Would you mind doing COc1cc(C(=O)N2CC3CCC2CN3C)cnc1-c1cc2nccc(-c3ccc(OC4CCOCC4)c(C#N)c3)c2o1 (stereo not shown) [Compound 406, hydrochloride] as well?
< 100 nM

Would you mind doing CN(C)C(=O)c1ccc(-c2cc3nccc(-c4ccc(NC5CCOCC5)c(C#N)c4)c3o2)cc1 [Compound 194, hydrochloride] as well?
100 to 1000 nM

Would you mind doing COc1cc(C(=O)N2CC(CO)C2)ccc1-c1cc2nccc(-c3ccc(OC4CCOCC4)c(C#N)c3)c2o1 as well?
< 100 nM

Moving on to another compound below.
Tell me the measured IC50 of N#Cc1cc(-c2ccnc3cc(-c4ccc(C(=O)N5CCC(F)(F)C5)cc4)oc23)ccc1OC1CCOCC1 , please.
< 100 nM
